OD450 at 0.53 nM values, listed per item
molecular target: biotinylated labeled human GPC3 protein (produced in-house) (human, UniProt P51654 25-559, limits assumed, biotinylated (Dojindo, Cat. No. LK03); sites not stated); assay: ELISA, biotinylated human GPC3 protein
Please state the figure in OD450; there is no need to write the unit.

// known answers, use as guide
>>> recorded_value("hAb003LH3L1 (antibody, human IgG1, V domains shown, Humanized F2.154.1; VH H3 + VL L1; expressed as human IgG1) VH: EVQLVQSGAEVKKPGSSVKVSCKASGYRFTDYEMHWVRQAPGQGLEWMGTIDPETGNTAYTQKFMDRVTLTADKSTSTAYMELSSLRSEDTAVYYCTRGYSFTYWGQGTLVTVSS VL: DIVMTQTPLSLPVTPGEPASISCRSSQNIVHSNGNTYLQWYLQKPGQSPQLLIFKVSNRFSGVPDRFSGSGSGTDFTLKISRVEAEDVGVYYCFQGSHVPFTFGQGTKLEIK")
2.26
>>> recorded_value("hAb003LH3L1b (antibody, human IgG1, V domains shown, Humanized F2.154.1; VH H3 + VL L1b; expressed as human IgG1) VH: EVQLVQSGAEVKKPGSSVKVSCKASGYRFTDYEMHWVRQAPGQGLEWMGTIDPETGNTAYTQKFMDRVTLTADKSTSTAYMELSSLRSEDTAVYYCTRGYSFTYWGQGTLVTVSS VL: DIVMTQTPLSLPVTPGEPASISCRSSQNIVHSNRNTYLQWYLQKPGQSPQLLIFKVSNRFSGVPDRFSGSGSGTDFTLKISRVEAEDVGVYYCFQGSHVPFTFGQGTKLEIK")
2.54
>>> recorded_value("hAb005LH2L1b (antibody, human IgG1, V domains shown, Humanized F3.54.12; VH H2 + VL L1b; expressed as human IgG1) VH: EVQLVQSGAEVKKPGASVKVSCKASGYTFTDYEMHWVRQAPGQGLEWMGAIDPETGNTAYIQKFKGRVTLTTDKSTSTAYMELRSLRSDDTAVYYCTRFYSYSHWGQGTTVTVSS VL: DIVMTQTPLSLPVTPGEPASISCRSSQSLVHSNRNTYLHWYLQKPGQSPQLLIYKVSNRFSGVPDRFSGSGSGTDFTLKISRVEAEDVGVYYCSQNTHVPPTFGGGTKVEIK")
1.05

Any idea what its OD450 at 0.53 nM is? The binder is hAb007LH1L1a (antibody, human IgG1, V domains shown, Humanized F3.81.19; VH H1 + VL L1a; expressed as human IgG1) VH: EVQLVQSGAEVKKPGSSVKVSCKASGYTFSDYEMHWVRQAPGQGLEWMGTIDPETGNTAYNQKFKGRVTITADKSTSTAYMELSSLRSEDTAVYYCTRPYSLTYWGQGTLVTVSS VL: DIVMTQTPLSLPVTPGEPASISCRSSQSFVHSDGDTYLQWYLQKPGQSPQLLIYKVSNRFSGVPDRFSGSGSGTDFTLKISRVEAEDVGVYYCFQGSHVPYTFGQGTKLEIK 1.57

Any idea what its OD450 at 0.53 nM is? The binder is hAb001H2L1 (antibody, human IgG1, V domains shown, Humanized F2.169.2; VH H2 + VL L1; expressed as human IgG1) VH: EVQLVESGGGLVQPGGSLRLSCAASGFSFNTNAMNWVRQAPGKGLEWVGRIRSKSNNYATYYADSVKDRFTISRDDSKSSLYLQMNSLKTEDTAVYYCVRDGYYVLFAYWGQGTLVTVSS VL: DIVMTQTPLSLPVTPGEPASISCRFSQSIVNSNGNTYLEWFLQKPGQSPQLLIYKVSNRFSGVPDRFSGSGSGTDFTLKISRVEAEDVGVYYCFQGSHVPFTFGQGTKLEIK 2.5

Where these numbers come from: patent US20260116991A1
